- tgt: MRGPRX4-83S (Homo sapiens, UniProt Q96LA9, L83S)
- Sequence (Q96LA9 whole entry L83S): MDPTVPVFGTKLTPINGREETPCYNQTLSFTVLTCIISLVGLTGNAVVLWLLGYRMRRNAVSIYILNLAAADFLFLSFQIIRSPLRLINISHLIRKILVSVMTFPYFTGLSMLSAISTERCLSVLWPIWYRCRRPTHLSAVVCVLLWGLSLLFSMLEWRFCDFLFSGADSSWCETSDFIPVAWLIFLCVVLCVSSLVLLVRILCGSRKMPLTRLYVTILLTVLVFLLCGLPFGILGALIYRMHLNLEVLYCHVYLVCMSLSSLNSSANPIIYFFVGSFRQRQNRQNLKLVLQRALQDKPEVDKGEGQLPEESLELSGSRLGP
- protocolDescription: β-arrestin assay (CHO β-arrestin human MRGPRX4-83S)
- Format: cell-based
- Set-up: host or cells: CHO β-arrestin cells
- protocolConditions: Table 2; efficacy based on 100 nM B-16 (set as 100%); read-out: Emax
Please go through the items and note down their Emax.
Quick note: number first, unit second.

I am curious: what Emax value has been reported for C#CCn1c(=O)c2c(nc(CCc3cccc(C(F)(F)F)c3)n2C)n(CCCCP(=O)(O)O)c1=O ?
100%

I am curious: what Emax value has been reported for C#CCn1c(=O)c2[nH]c(CCc3cccc(Br)c3)nc2n(CCCCP(=O)(O)O)c1=O ?
110%

I am curious: what Emax value has been reported for C#CCn1c(=O)c2[nH]c(CCc3cccc(F)c3)nc2n(CCCCP(=O)(O)O)c1=O ?
93%

I am curious: what Emax value has been reported for C#CCn1c(=O)c2c(nc(CCc3ccccc3Br)n2C)n(CCCCP(=O)(O)O)c1=O ?
128%

I am curious: what Emax value has been reported for C#CCn1c(=O)c2[nH]c(CCc3cccc(C)c3)nc2n(CCCCP(=O)(O)O)c1=O ?
103%

I am curious: what Emax value has been reported for C#CCn1c(=O)c2c(nc(CCc3ccccc3Br)n2C)n(CCCCP(=O)(O)OCC)c1=O ?
120%

I am curious: what Emax value has been reported for C#CCn1c(=O)c2[nH]c(CCc3ccccc3OC)nc2n(CCCCP(=O)(O)O)c1=O ?
101%

I am curious: what Emax value has been reported for C#CCn1c(=O)c2[nH]c(/C=C/c3cccc(OC)c3)nc2n(CCCCP(=O)(O)O)c1=O ?
65%

I am curious: what Emax value has been reported for CCn1c(=O)c2[nH]c(CCc3cccc(OC)c3)nc2n(CCCCP(=O)(O)O)c1=O ?
102%

I am curious: what Emax value has been reported for C#CCn1c(=O)c2[nH]c(CCc3ccccc3Br)nc2n(CCCCP(=O)(O)O)c1=O ?
143%

I am curious: what Emax value has been reported for C#CCn1c(=O)c2[nH]c(CCc3cccc(OC)c3)nc2n(CCCCP(=O)(O)O)c1=O ?
98%

I am curious: what Emax value has been reported for C#CCn1c(=O)c2c(nc(CCc3cccc(OC)c3)n2C)n(CCCOP(=O)(O)O)c1=O [H-1, reference compound] ?
86%

I am curious: what Emax value has been reported for COc1cccc(CCc2nc3c([nH]2)c(=O)n(CC2CCC2)c(=O)n3CCCCP(=O)(O)O)c1 ?
93%

I am curious: what Emax value has been reported for CCCn1c(=O)c2[nH]c(C3CCCC3)nc2n(CCCCP(=O)(O)O)c1=O ?
76%

I am curious: what Emax value has been reported for C#CCn1c(=O)c2[nH]c(CCc3ccc(OC)cc3OC)nc2n(CCCCP(=O)(O)O)c1=O ?
87%

I am curious: what Emax value has been reported for C#CCn1c(=O)c2[nH]c(CCc3ccccc3OC)nc2n(CCCCP(=O)(O)OCC)c1=O ?
141%

I am curious: what Emax value has been reported for C#CCn1c(=O)c2c(nc(CCc3cccc(OC)c3)n2C)n(CCCCP(=O)(O)O)c1=O ?
140%

I am curious: what Emax value has been reported for C#CCn1c(=O)c2[nH]c(CCc3ccccc3)nc2n(CCCCP(=O)(O)O)c1=O ?
84%

I am curious: what Emax value has been reported for C#CCn1c(=O)c2[nH]c(CCc3cccc(C(F)(F)F)c3)nc2n(CCCCP(=O)(O)O)c1=O ?
100%

I am curious: what Emax value has been reported for C#CCn1c(=O)c2[nH]c(CCc3cccc(OC)c3)nc2n(CCCCP(=O)(O)OCC)c1=O ?
110%

I am curious: what Emax value has been reported for CCn1c(=O)c2[nH]c(CCc3ccc(F)cc3)nc2n(CCCCP(=O)(O)O)c1=O ?
81%

I am curious: what Emax value has been reported for C#CCn1c(=O)c2[nH]c(CCc3ccccc3Cl)nc2n(CCCCP(=O)(O)O)c1=O ?
116%

---

Please go through the items and note down their melting point.

I am curious: what melting point value has been reported for C#CCn1c(=O)c2c(nc(CCc3ccc(I)cc3)n2CC2CCCC2)n(CCCCP(=O)(O)O)c1=O ?
119 to 121 °C

I am curious: what melting point value has been reported for C#CCn1c(=O)c2[nH]c(CCc3cccc(OC)c3)nc2n(CCCCP(=O)(O)OCC)c1=O ?
118 to 120 °C

I am curious: what melting point value has been reported for C#CCn1c(=O)c2c(nc(Cc3cccc4ccccc34)n2CC)n(CCCCP(=O)(O)O)c1=O ?
138 to 140 °C

I am curious: what melting point value has been reported for C#CCn1c(=O)c2[nH]c(CCc3cccc(Br)c3)nc2n(CCCCP(=O)(O)O)c1=O ?
240 to 242 °C

I am curious: what melting point value has been reported for C#CCn1c(=O)c2c(nc(CCc3ccccc3Br)n2C)n(CCCCCCP(=O)(O)O)c1=O ?
221 to 223 °C

I am curious: what melting point value has been reported for C#CCn1c(=O)c2c(nc(CCc3ccccc3Br)n2CC2CCCC2)n(CCCCP(=O)(O)O)c1=O ?
137 to 139 °C

I am curious: what melting point value has been reported for C#CCn1c(=O)c2[nH]c(CCc3ccccc3Br)nc2n(CCCCCC(=O)O)c1=O ?
192 to 194 °C

I am curious: what melting point value has been reported for C#CCn1c(=O)c2[nH]c(CCc3ccccc3F)nc2n(CCCCP(=O)(O)O)c1=O ?
239 to 241 °C

---

- tgt: human MRGPRX4-83L (Homo sapiens)
- Construct: host or cells: CHO β-arrestin cells
- Sequence (Q96LA9 whole entry): as the sequence (Q96LA9 whole entry L83S) above, with S83L counted along it
- protocolDescription: Calcium assay (human MRGPRX4 83L), recombinant astrocytes
- Assay type: cell-based
- protocolConditions: Table 1; calcium mobilization, MRGPRX4-83L; read-out: EC50 ± SEM
assayMetric: pEC50
Schema: pEC50 number; meaning minus log10 of the concentration expressed in molar units.

I am curious: what pEC50 value has been reported for C#CCn1c(=O)c2c(nc(CCc3ccccc3Br)n2Cc2ccccc2)n(CCCCP(=O)(O)O)c1=O ?
8.30

I am curious: what pEC50 value has been reported for CCn1c(=O)c2[nH]c(CCc3cccc(OC)c3)nc2n(CCCCP(=O)(O)O)c1=O ?
5.42

I am curious: what pEC50 value has been reported for C#CCn1c(=O)c2c(nc(CCc3ccccc3Br)n2C)n(CCCCP(=O)(O)OCC)c1=O ?
7.26

I am curious: what pEC50 value has been reported for COc1cccc(CCc2nc3c([nH]2)c(=O)n(CC2CCC2)c(=O)n3CCCCP(=O)(O)O)c1 ?
5.80

I am curious: what pEC50 value has been reported for C#CCn1c(=O)c2[nH]c(CCc3ccc(OC)cc3OC)nc2n(CCCCP(=O)(O)O)c1=O ?
6.37

I am curious: what pEC50 value has been reported for C#CCn1c(=O)c2[nH]c(CCc3cccc(C)c3)nc2n(CCCCP(=O)(O)O)c1=O ?
6.31

I am curious: what pEC50 value has been reported for C#CCn1c(=O)c2[nH]c(CCc3cccc(OC)c3)nc2n(CCCCP(=O)(O)O)c1=O ?
6.36

I am curious: what pEC50 value has been reported for C#CCn1c(=O)c2[nH]c(CCc3ccccc3OC)nc2n(CCCCP(=O)(O)OCC)c1=O ?
5.48

I am curious: what pEC50 value has been reported for C#CCn1c(=O)c2c(nc(CCc3ccccc3Br)n2CC)n(CCCCP(=O)(O)O)c1=O ?
8.37

I am curious: what pEC50 value has been reported for C#CCn1c(=O)c2[nH]c(CCc3ccccc3Br)nc2n(CCCCP(=O)(O)O)c1=O ?
7.64

I am curious: what pEC50 value has been reported for C#CCn1c(=O)c2[nH]c(CCc3cccc(C(F)(F)F)c3)nc2n(CCCCP(=O)(O)O)c1=O ?
6.57

I am curious: what pEC50 value has been reported for C#CCn1c(=O)c2[nH]c(CCc3cccc(F)c3)nc2n(CCCCP(=O)(O)O)c1=O ?
6.22

I am curious: what pEC50 value has been reported for CCn1c(=O)c2[nH]c(CCc3ccc(F)cc3)nc2n(CCCCP(=O)(O)O)c1=O ?
5.02

I am curious: what pEC50 value has been reported for C#CCn1c(=O)c2[nH]c(CCc3ccccc3OC)nc2n(CCCCP(=O)(O)O)c1=O ?
6.40

I am curious: what pEC50 value has been reported for C#CCn1c(=O)c2c(nc(CCc3ccccc3Br)n2CCC)n(CCCCP(=O)(O)O)c1=O ?
7.75

I am curious: what pEC50 value has been reported for C#CCn1c(=O)c2c(nc(CCc3ccccc3Cl)n2C)n(CCCCP(=O)(O)O)c1=O ?
8.65

I am curious: what pEC50 value has been reported for C#CCn1c(=O)c2c(nc(CCc3cccc(OC)c3)n2C)n(CCCOP(=O)(O)O)c1=O [H-1, reference compound] ?
6.24

I am curious: what pEC50 value has been reported for C#CCn1c(=O)c2c(nc(CCc3ccccc3Br)n2CC2CC2)n(CCCCP(=O)(O)O)c1=O ?
8.69
